system: OCI-AML5 cells expressing shRNAs targeting CDK1, 2, 4, 7, 9, cyclin K; experiment: Dose response in OCI-AML5 expressing shRNAs targeting CDK1, 2, 4, 7, 9, cyclin K or control; type: cell-based, H. sapiens; conditions: Homo sapiens, OCI-AML-5, 96 h, OCI-AML5, 4 days; read-out: IC50, sh CDK4
METRIC: pIC50
On this scale, pIC50 is minus log10 of a concentration expressed in M (mol/L).

[in] Kindly indicate its recorded pIC50. Item: CN(C)c1ccc(CC(=O)Nc2ncc(SCc3cccnc3)s2)cc1
[out] 6.24

###

system: primary AML specimens; assay: Dose-response assays in primary AML specimens (6 days, CellTiterGlo); format: cell-based, human; conditions: primary AML specimen 09H016; 6 days; read-out: IC50
# maps each entry to its pIC50
On this scale, pIC50 is minus log10 of a concentration expressed in M (mol/L).

- MOLECULE: "Cc1cccc(Nc2nc(CC(=O)Nc3ncc(C)s3)cs2)n1 [HQ461]"
  MEASURED RESULT: 6.06

Could you now look at the following molecule, please?
[in] Kindly indicate its recorded pIC50. Item: CC[C@H](CO)Nc1nc(NCc2ccc(-c3ccccn3)cc2)c2ncn(C(C)C)c2n1 [CR8]
[out] 7.29

###

target: CDK9/CyclinT (Homo sapiens, UniProt P50750); construct: purchased BPS Bioscience 79628; experiment: CDK9/CyclinT in vitro kinase activity, single concentration 1 μM; format: biochemical; settings: single concentration 1 μM
Sequence (P50750 whole entry): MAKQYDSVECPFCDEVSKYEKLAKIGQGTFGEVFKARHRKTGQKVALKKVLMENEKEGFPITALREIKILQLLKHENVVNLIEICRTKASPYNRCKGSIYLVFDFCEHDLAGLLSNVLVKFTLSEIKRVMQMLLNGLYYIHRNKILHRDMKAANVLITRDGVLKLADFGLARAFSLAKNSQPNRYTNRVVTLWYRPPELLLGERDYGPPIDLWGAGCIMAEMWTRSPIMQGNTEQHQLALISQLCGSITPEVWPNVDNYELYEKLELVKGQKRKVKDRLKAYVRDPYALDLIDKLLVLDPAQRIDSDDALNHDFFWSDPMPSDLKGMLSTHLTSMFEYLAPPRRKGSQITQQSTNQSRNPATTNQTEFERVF
Sequence (O60563 whole entry partner): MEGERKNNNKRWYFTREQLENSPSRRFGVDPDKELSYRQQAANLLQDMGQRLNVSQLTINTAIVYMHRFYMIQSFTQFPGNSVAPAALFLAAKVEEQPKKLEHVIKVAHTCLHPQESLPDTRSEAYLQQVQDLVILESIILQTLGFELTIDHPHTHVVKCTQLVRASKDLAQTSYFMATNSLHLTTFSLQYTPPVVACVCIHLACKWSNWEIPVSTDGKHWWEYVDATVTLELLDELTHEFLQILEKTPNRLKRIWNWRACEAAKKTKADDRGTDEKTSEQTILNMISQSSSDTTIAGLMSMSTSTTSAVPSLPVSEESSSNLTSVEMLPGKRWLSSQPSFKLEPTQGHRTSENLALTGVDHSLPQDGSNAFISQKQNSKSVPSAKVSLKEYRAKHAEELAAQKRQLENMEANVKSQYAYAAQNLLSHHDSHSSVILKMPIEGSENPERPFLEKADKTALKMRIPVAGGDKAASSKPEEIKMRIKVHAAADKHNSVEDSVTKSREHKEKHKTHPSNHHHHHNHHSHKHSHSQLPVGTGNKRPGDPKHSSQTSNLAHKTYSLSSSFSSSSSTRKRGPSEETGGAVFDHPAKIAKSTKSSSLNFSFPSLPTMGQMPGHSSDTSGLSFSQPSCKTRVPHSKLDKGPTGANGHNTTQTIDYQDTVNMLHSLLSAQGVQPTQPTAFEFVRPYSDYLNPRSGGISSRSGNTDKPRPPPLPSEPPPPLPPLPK
Would you please tag the item rule met when its inhibition at 1 µM is 60% or above, and rule not met when it is below?

Solved cases below.
- MOLECULE: "O=C(Cc1ccc(NC(=O)c2ccccc2)cc1)Nc1ncc(SCc2cccnc2)s1 [UOM-005478]"
  CLASS LABEL: "rule met"
- MOLECULE: "O=C(Cc1ccc(F)cc1)Nc1ncc(SCc2cccnc2)s1 [UOM-005197]"
  CLASS LABEL: "rule not met"
- MOLECULE: "O=C(Cc1ccc(Br)cc1)Nc1ncc(SCc2cccnc2)s1 [UOM-005199]"
  CLASS LABEL: "rule met"

[in] Is inhibition at 1 µM at least 60%? Consider CC(=O)N[C@@H]1CCC[C@H](C(=O)Nc2cc(-c3cnn4c3CC(C)(C)C4)c(Cl)cn2)C1 [AZD4573, reference compound]
[out] rule met

[in] Is inhibition at 1 µM at least 60%? Consider O=C(Cc1ccc(NC(=O)c2cccnc2)cc1)Nc1ncc(SCc2cccnc2)s1 [UOM-005475]
[out] rule met

[in] Is inhibition at 1 µM at least 60%? Consider O=C(Cc1ccc(Cl)cc1)Nc1ncc(SCc2cccnc2)s1 [UOM-005198]
[out] rule not met

[in] Is inhibition at 1 µM at least 60%? Consider O=C(Cc1ccc(N2CCCCC2)cc1)Nc1ncc(SCc2cccnc2)s1 [UOM-005607]
[out] rule met

[in] Is inhibition at 1 µM at least 60%? Consider [N-]=[N+]=Nc1ccc(CC(=O)Nc2ncc(SCc3cccnc3)s2)cc1 [UOM-005062]
[out] rule met

[in] Is inhibition at 1 µM at least 60%? Consider CN(C)c1ccc(CC(=O)Nc2nc3c(s2)CCC3)cc1 [UOM-005599]
[out] rule not met

[in] Is inhibition at 1 µM at least 60%? Consider O=C(Cc1ccc(-c2ccccn2)cc1)Nc1ncc(SCc2cccnc2)s1 [UOM-005636]
[out] rule not met
